Tested on: Mycobacterium tuberculosis (strain H37RV)
assay-summary: In-vitro method for testing compounds against M. tuberculosis (resazurin growth inhibition, MIC)
Format: cell-based
condition-summary: MIC data representing IC90's, 7 days incubation, resazurin fluorescence
assay-readout: log10 of MIC (log10 of the value in microgram/ml)

INSERT INTO results (compound, meas_value) VALUES
  ('COc1nc2ccc(Br)cc2cc1C(c1ccccc1)C(O)(CC[N+](C)(C)[O-])c1ccccc1 (racemic)', 1.22),
  ('COc1nc2ccc(Br)cc2cc1C(c1ccc(Cl)cc1)C(O)(CCN(C)C)c1ccccc1 (single isomer, unassigned) [Compound 37]', -0.47),
  ('COc1nc2ccc(Br)cc2cc1C(c1ccccc1)C(O)(CCN1CCN(C)CC1)c1cccc2ccccc12 (single isomer, unassigned) [Compound 149]', 1.69),
  ('CCN(C)CCC(O)(c1cccc2ccccc12)C(c1ccccc1)c1cc2cc(Br)ccc2nc1OC (stereo not drawn) [Compound 147]', 1.06),
  ('COc1nc2ccc(Br)cc2cc1C(c1ccccc1)C(O)(CCCCN(C)C)c1ccc2ccccc2c1 (single isomer, unassigned) [Compound 191]', 0.27),
  ('COc1nc2ccc(Br)cc2cc1C(c1ccccc1)C(O)(CCCN1CCCC1)c1ccc2ccccc2c1 (single isomer, unassigned) [Compound 132]', 1.67);

----------
Listed here: items and their measured MIC.
Tested on: Mycobacterium tuberculosis (strain H37RV)
assay-summary: In-vitro method for testing compounds against M. tuberculosis (resazurin growth inhibition, MIC)
Type: cell-based
condition-summary: MIC data representing IC90's, 7 days incubation, resazurin fluorescence
assay-readout: MIC (microgram/ml)

INSERT INTO assay_data (compound, assay_readout, meas_value) VALUES
  ('COc1nc2ccc(Br)cc2cc1C(c1ccccc1)C(O)(CCCN1CCCC1)c1ccc2ccccc2c1 (single isomer, unassigned) [Compound 133]', 'MIC', 59.56),
  ('COc1nc2ccc(C)cc2cc1C(c1ccccc1)C(O)(CCN(C)C)c1cccc2ccccc12 (racemic) [Compound 83]', 'MIC', 7.78),
  ('COc1nc2ccc(Br)cc2cc1C(c1ccccc1)C(O)(CCN(C)C)c1cccs1 (single isomer, unassigned) [Compound 21]', 'MIC', 16.17),
  ('COc1nc2ccc(Br)cc2cc1C(c1ccccc1)C(O)(CCN1CCOCC1)c1ccc2ccccc2c1 (single isomer, unassigned) [Compound 139]', 'MIC', 59.76),
  ('COc1nc2ccc(Br)cc2cc1C(c1ccccc1)C(O)(CCN(C)C)c1cc(F)cc(F)c1 (stereo not shown) [Compound 116]', 'MIC', 8.58),
  ('COc1nc2ccc(Br)cc2cc1C(c1ccccc1)C(O)(CCCCN(C)C)c1ccc2ccccc2c1 (single isomer, unassigned) [Compound 190]', 'MIC', 1.85),
  ('COc1nc2ccc(Br)cc2cc1C(c1ccccc1)C(O)(CCCN(C)C)c1ccc2ccccc2c1 (single isomer, unassigned) [Compound 125]', 'MIC', 18.01),
  ('COc1nc2ccc(Br)cc2cc1C(c1ccccc1)C(O)(CCN(C)C)c1ccc(Cl)cc1 (single isomer, unassigned) [Compound 16]', 'MIC', 0.34),
  ('COc1nc2ccc(Br)cc2cc1C(c1ccccc1)C(O)(CCN(C)C)c1cccc2c1CCCC2 (single isomer, unassigned) [Compound 131]', 'MIC', 44.45),
  ('COc1nc2cc(C)c(Br)cc2cc1C(c1ccccc1)C(O)(CCN(C)C)c1cccc2ccccc12 (single isomer, unassigned) [Compound 225]', 'MIC', 1.80),
  ('COc1nc2ccc(-c3cc4ccccc4s3)cc2cc1C(c1ccccc1)C(O)(CCN(C)C)c1cccc(F)c1 (single isomer, unassigned) [Compound 203]', 'MIC', 1.15),
  ('COc1nc2cccc(Br)c2cc1C(c1ccccc1)C(O)(CCN(C)C)c1cccc2ccccc12 (single isomer, unassigned) [Compound 221]', 'MIC', 44.13),
  ('COc1nc2cc(C)c(Br)cc2cc1C(c1ccccc1)C(O)(CCN(C)C)c1cccc(F)c1 (single isomer, unassigned) [Compound 216]', 'MIC', 0.85),
  ('COc1nc2ccc(Br)cc2cc1C(c1ccccc1)C(O)(CCN1CCCCC1)c1ccc2ccccc2c1 (stereo not shown) [Compound 128]', 'MIC', 59.56),
  ('CCN(CC)CCCC(O)(c1ccc2ccccc2c1)C(c1ccccc1)c1cc2cc(Br)ccc2nc1OC (single isomer, unassigned) [Compound 193]', 'MIC', 9.47),
  ('COc1nc2ccc(Br)cc2cc1C(c1ccccc1)C(O)(CCN(C)C)c1ccc2c(c1)OCO2 (racemic) [Compound 75]', 'MIC', 1.74),
  ('COc1nc2ccc(Br)cc2cc1C(c1ccccc1)C(O)(CCN1CCN(C)CC1)c1cc(Br)cc2ccccc12 (single isomer, unassigned) [Compound 152]', 'MIC', 10.93),
  ('COc1nc2ccc(Br)cc2cc1C(c1ccccc1)C(O)(CCN(C)C)c1cccs1 (single isomer, unassigned) [Compound 20]', 'MIC', 40.63),
  ('COc1nc2ccc(F)cc2cc1C(c1ccccc1)C(O)(CCN(C)C)c1ccccc1 (single isomer, unassigned) [Compound 29]', 'MIC', 44.46),
  ('COc1nc2ccccc2cc1C(c1ccccc1)C(O)(CCN(C)C)c1cccc2ccccc12 (racemic) [Compound 91]', 'MIC', 1.51),
  ('COc1nc2ccc(Br)cc2cc1C(c1ccccc1)C(O)(CCN(C)C)c1cc(Br)cc2ccccc12 (single isomer, unassigned) [Compound 150]', 'MIC', 63.44),
  ('COc1nc2ccc(-c3ccccc3)cc2cc1C(c1ccccc1)C(O)(CCN(C)C)c1ccccc1 (single isomer, unassigned) [Compound 26]', 'MIC', 1.00),
  ('COc1nc2ccc(Br)cc2cc1C(c1ccccc1)C(O)(CCN1CCN(C)CC1)c1cccc2ccccc12 (single isomer, unassigned) [Compound 156]', 'MIC', 9.68),
  ('COc1nc2ccc(Cl)cc2cc1C(c1ccccc1)C(O)(CCN(C)C)c1ccccc1 (single isomer, unassigned) [Compound 30]', 'MIC', 1.46),
  ('COc1nc2ccc(Br)cc2cc1C(c1ccccc1)C(O)(CCN(C)C)c1ccsc1 (single isomer, unassigned) [Compound 24]', 'MIC', 1.62);
